test system: Cyclo-oxygenase (COX); assay: Cyclo-oxygenase assay in RBL 2H3 cells (PGD2 EIA); assay type: cell-based, rat; details: final concentration of 10 µM
Rule: Cyclooxygenase activity % activity under 20% gives No, otherwise Yes.

| compound | tgt | cat |
| --- | --- | --- |
| CCCCCCCC(O)CC(=O)CCc1cccc(OC)c1O (centres unmarked) [[8]-orthogingerol] | Cyclo-oxygenase (COX) | No |
| CCCCCCCC(O)CC(=O)C=Cc1ccc(O)c(OC)c1 (centres unmarked) [[8]-dehydrogingerol, reference compound] | Cyclo-oxygenase (COX) | No |
| CCCCCCCCCC(O)CCc1ccc(O)c(OC)c1 (centres unmarked) | Cyclo-oxygenase (COX) | No |
| CCCCCCCCCC(=O)CCc1ccc(O)c(OC)c1 [[8]-paradol, reference compound] | Cyclo-oxygenase (COX) | No |
| CCCCCCCCCC(=O)C(O)c1ccc(O)c(OC)c1 (centres unmarked) | Cyclo-oxygenase (COX) | No |
| CCCCCCCC(O)CC(=O)c1ccc(O)c(OC)c1 (centres unmarked) | Cyclo-oxygenase (COX) | Yes |
| CCCCCCCC(O)CCCCc1ccc(O)c(OC)c1 (centres unmarked) | Cyclo-oxygenase (COX) | No |
| CCCCCCCC(O)CC(=O)CCc1ccc2c(c1)OCO2 (centres unmarked) | Cyclo-oxygenase (COX) | Yes |
| CCCCCCCC(=O)CC(O)CCc1ccc(O)c(OC)c1 (centres unmarked) | Cyclo-oxygenase (COX) | No |
| CCCCCCCCCC(O)C(=O)c1ccc(O)c(OC)c1 (centres unmarked) | Cyclo-oxygenase (COX) | Yes |
| CCCCCCCC=CC(=O)CCc1ccc(O)c(OC)c1 [[8]-shogaol, reference compound] | Cyclo-oxygenase (COX) | Yes |
| CCCCCC(O)CC(=O)CCc1ccc(O)c(OC)c1 (centres unmarked) [[6]-gingerol, reference compound] | Cyclo-oxygenase (COX) | Yes |
| CCCCCCCC(O)CC(=O)CCc1ccc(O)c(OC)c1 (centres unmarked) [[8]-gingerol, reference compound] | Cyclo-oxygenase (COX) | No |
| CCCCCCCC(O)CC(O)CCc1ccc(O)c(OC)c1 (centres unmarked) [[8]-gingerdiol, reference compound] | Cyclo-oxygenase (COX) | No |
| CCCCCCCCC(C)(O)CCc1ccc(O)c(OC)c1 (centres unmarked) | Cyclo-oxygenase (COX) | No |
| CCCCCCCC(O)CC(=O)CCc1ccc(OC)c(O)c1 (centres unmarked) [[8]-isogingerol, reference compound] | Cyclo-oxygenase (COX) | Yes |
| CCCCCCCC(O)CC(=O)CCc1ccc(O)cc1 (centres unmarked) [[8]-demethoxygingerol] | Cyclo-oxygenase (COX) | Yes |

====

We begin with a simple list: items and their reported pIC50.
test system: Platelet rich plasma; assay: Platelet aggregation: [^3H]-serotonin release from platelet rich plasma, arachidonic acid initiated; format: cell-based; settings: Homo sapiens, activation by EC50 concentration of arachidonic acid
pIC50: −log10 of the molar value.

| compound | pIC50 |
| --- | --- |
| CC(=O)Oc1ccccc1C(=O)O [Aspirin, reference compound] | 4.63 |
| CCCCCCCC(O)CC(=O)CCc1ccc(O)c(OC)c1 (centres unmarked) [[8]-gingerol, reference compound] | 4.15 |
| CCCCCCCCCC(=O)C(O)c1ccc(O)c(OC)c1 (centres unmarked) | 4.16 |
| CCCCCC(O)CC(=O)CCc1ccc(O)c(OC)c1 (centres unmarked) [[6]-gingerol, reference compound] | 4.13 |
| CCCCCCCC(O)CC(O)CCc1ccc(O)c(OC)c1 (centres unmarked) [[8]-gingerdiol, reference compound] | 4.08 |
| CCCCCCCCC(C)(O)CCc1ccc(O)c(OC)c1 (centres unmarked) | 4.34 |
| CCCCCCCCCCC(C)(O)CCc1ccc(O)c(OC)c1 (centres unmarked) | 4.12 |
| CCCCCCCCCC(O)CCc1ccc(O)c(OC)c1 (centres unmarked) | 4.24 |
